Could you please report measured TGI for the items listed next?
Tested on: OVCAR-8 ovarian
test_summary: NCI tumour cell line growth inhibition, 48 h

Documented TGI of CC12O[C@H](C[C@@H](OC(=O)CCC(=O)O)[C@H]1O)n1c3ccccc3c3c4c(c5c6ccccc6n2c5c31)C(=O)NC4=O : > 50 µM

Documented TGI of Cc1cc(C)n(-c2nc(C)c(CCO)c(=O)[nH]2)n1 : > 100 µM

Documented TGI of N=C(CC(=O)Nc1ccccn1)c1ccccc1 : > 100 µM

* * *

Test system: PC-3 prostate
test_summary: NCI tumour cell line growth inhibition, 48 h
Could you please report measured log10 of TGI for the items listed next?
In plain terms, each number is the log10 of measured TGI in µM.

Documented log10 of TGI of Cn1cc2c3ccccc3nc-2c2ccccc21 : 0.76

Documented log10 of TGI of CCOC(=O)/C=C1/SC(=Nc2ccc(C#N)cc2)N(Cc2ccco2)C1=O : 1.00

Documented log10 of TGI of COc1ccc2nc3ccccc3c(NCCNCC(C)O)c2c1 (centres undefined) : 0.68

Documented log10 of TGI of Clc1ccc(-c2nc(NCc3ccco3)c3ccccc3n2)c(Cl)c1 : 1.75

Documented log10 of TGI of CCN(C(=O)N[C@H](C(=O)N[C@@H](CSC)C(=O)N[C@@H](C)C(=O)OC)C(C)C)c1ccccc1 : 1.50

Documented log10 of TGI of COc1ccc2c(c1)/c(=C/C#N)c1c3ccccc3[n+](C)n21 : 1.07
